All values here come from patent US20090082368A1.

Tested on: NGF receptors on PC12 cells (TrkA+p75)
Experiment: NGF binding (125I-NGF) using PC12 cells
Design: species or system rat
Settings: Table 3; read-out: NGF Binding Assay IC50
Procedure: NGF binding was evaluated using methods familiar to those who are skilled in the art. Briefly, cells expressing one or both NGF receptors (PC12: TrkA+p75; A875: p75 alone; HEK/CHO_trkA: TrkA alone) were harvested by replacing the medium with the cell dissociation buffer (Amersham) and incubating at 37° C. for 15 min. […] For most compounds, multiple dose-response curves were generated. The IC50 data shown in Tables A-J were acquired using the procedure described herein using PC12 cells.
# IC50 listing for each entry below
readout_label: IC50

O=C(O)c1cccc(N2Cc3cc(C(=O)O)ccc3C2=O)c1 [Compound 12A] = 10 to 29 µM
Cn1nnnc1-c1cc2c3c(cccc3c1)C(=O)N(CCCC(=O)O)C2=O [Compound 47G] = < 10 µM
N#Cc1cc2c3c(cccc3c1)C(=O)N(CCCC(=O)O)C2=O [Compound 32G] = < 10 µM
